# test.description: Viability qHTS for spleen associated tyrosine kinase inhibitor (SYKi) drug resistant MV4-11 cells (AID 1963824); also: nearly all actives have a fitted effect of over 35% in size; also: potency is read from the fitted curve at half-maximal effect
# assay.setup: SYKi-resistant MV4-11 viability, CellTiter-Glo, 72 h; series mostly up to 45 µM
Inconclusive results are not listed. Calls of active or inactive are those of the source. Calls follow the shape of the dose curve; as a rule, active = well fitted cell-killing curve with a large enough effect; inconclusive = small, poorly fitted or top-dose-only effect, or effect the other way; inactive = no such curve, though single readings can be large or run the other way.
metric: Potency

>  <compound>
C=C(C)[C@H]1CC[C@]2(C(=O)O)CC[C@]3(C)C(CCC4[C@@]5(C)CCC(=O)C(C)(C)C5CC[C@]43C)C12 (some centres undefined)

>  <metric>
Potency

>  <reported.measurement>
1420 nM (active)

$$$$
>  <compound>
COc1cc(O)cc2c1C(=O)OC(C)C2 (centres undefined)

>  <metric>
Potency

>  <reported.measurement>
inactive

$$$$
>  <compound>
Nc1nccc(Oc2ccc(NC(=O)c3c[nH]cc(-c4ccc(F)cc4)c3=O)cc2F)c1Cl

>  <metric>
Potency

>  <reported.measurement>
29.1 nM (active)

$$$$
>  <compound>
CCn1cc(C(=O)O)c(=O)c2ccc(C)nc21

>  <metric>
Potency

>  <reported.measurement>
inactive

$$$$
>  <compound>
Cn1c(=O)c2c(ncn2CCO)n(C)c1=O

>  <metric>
Potency

>  <reported.measurement>
inactive

$$$$
>  <compound>
CC(C)(O)c1ccc2c(c1)C(=O)C[C@H]1[C@](C)(C(=O)O)CCC[C@]21C

>  <metric>
Potency

>  <reported.measurement>
inactive

$$$$
>  <compound>
CCc1c(O)cc(O)c(C(=O)c2ccc(OCCN3CCOCC3)c(OC)c2)c1CC(=O)N(CCOC)CCOC

>  <metric>
Potency

>  <reported.measurement>
235 nM (active)

$$$$
>  <compound>
COc1nc2ccc(Br)cc2cc1[C@@H](c1ccccc1)[C@@](O)(CCN(C)C)c1cccc2ccccc12

>  <metric>
Potency

>  <reported.measurement>
9200 nM (active)

$$$$
>  <compound>
C=CC1C(O[C@@H]2O[C@H](CO)[C@@H](O)[C@H](O)[C@H]2O)OC=C(C(=O)OC)C1CC(=O)O (some centres undefined)

>  <metric>
Potency

>  <reported.measurement>
inactive

$$$$
